- subject-of-test: UniProtKB P56817
- Sequence (P56817 46-501): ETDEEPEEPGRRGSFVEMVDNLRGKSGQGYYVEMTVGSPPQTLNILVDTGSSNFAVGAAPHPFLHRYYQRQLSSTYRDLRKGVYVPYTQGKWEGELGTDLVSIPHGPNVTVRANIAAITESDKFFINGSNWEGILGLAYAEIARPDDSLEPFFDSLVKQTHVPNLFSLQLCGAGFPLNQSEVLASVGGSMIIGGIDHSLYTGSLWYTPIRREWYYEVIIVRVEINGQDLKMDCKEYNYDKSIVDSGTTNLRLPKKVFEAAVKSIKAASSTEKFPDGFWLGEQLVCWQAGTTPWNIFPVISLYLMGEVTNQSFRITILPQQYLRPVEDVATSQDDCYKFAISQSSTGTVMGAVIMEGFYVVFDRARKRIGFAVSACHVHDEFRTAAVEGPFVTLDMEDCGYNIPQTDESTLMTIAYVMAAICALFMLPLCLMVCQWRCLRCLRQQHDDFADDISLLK
- test-method-notes: In vitro enzymatic BACE FRET (fluorescence resonance energy transfer) assay;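 note: fluorescence read after 1 h with 50 nM quenched peptide substrate spanning the BACE cleavage site, in pH 4.2 acetate buffer containing 10% DMSO and nonionic detergent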
- Format: biochemical
- measurement-conditions: BACE enzyme assay, IC50's in uM; read-out: BACE1 FRET assay
outcome-measure: log10 IC50 (log10 of the value in µM)
Response schema: value (number) is log10 of IC50 in units of µM.

Exercise: What does the data say about its log10 IC50? Entry: `COCC(=O)N[C@@H](Cc1cccc(F)c1)[C@H](O)CN[C@H]1CC2(CCC2)Oc2nc3c(cc21)[C@H](C(C)C)CO3`
Solution: 0.40

Exercise: Given `COCC(=O)N[C@@H](Cc1cc(F)cc(-c2nccs2)c1)[C@H](O)CN[C@H]1CC2(CCC2)Oc2ncc([C@@H]3CC3(C)C)cc21` , state its recorded log10 IC50.
Solution: -2.52

Exercise: I'd like to know its log10 IC50. The compound in question is `C#Cc1cc(C[C@H](NC(=O)COC)[C@H](O)CN[C@H]2CC3(CCC3)Oc3ncc(CC(C)(C)C)cc32)cc(-c2nccs2)c1`
Solution: -0.19

Exercise: Can you share its log10 IC50? I mean this compound: `C#Cc1ccc(C[C@H](NC(=O)COC)[C@H](O)CN[C@H]2CC3(CCC3)Oc3ncc(CC(C)C)cc32)cc1`
Solution: -1.21

Exercise: So what does the record say about log10 IC50 for `CC#Cc1cnc2c(c1)[C@@H](NC[C@@H](O)[C@H](Cc1cccc(Br)c1)NC(=O)COC)CC1(CCC1)O2` ?
Solution: -0.59
